Quick reference: EC50 of the listed items.
studyTarget: T1, human EGFRvIII protein on the surface of U87MG-hEGFRvIII cells (human, UniProt P00533 25-1210)
T1 construct: whole, on cells; Stably transfected U87MG cells; also called mutant EGFRvIII protein; U87MG-EGFRvIII
assayNotes: FACS on U87MG-hEGFRvIII cells

Sample answers from the record:
binder: Murine anti-75G7 (antibody, V domains shown, Mouse hybridoma antibody; also called 75G7C6) VH: EVQLQQSGPELVKPGASVKIPCKASGYTFTDYNMDWVKQSHGKSLEWIGDINPNNGDTIYNQKFKGKATLTVDKSSSTAYMELRSLTSEDTAVYYCARGDYDGYYPVYYAMDYWGQGTSVTVSS VL: ENVLTQSPAIMSASPGEKVTMTCRASSSVSSSYLHWYQQKSGASPKLWIFSTSNLAAGVPARFSGSGSGTSYSLTVSSVEAEDAATYYCQQYSGYPLTFGAGTKLELK
EC50: 4.8 nM

binder: Murine anti-63A10 (antibody, V domains shown, Mouse hybridoma antibody; also called 63A10A7) VH: QVQLQQSGAELARPGASVKMSCKASGYTFISFTMHWVKQRPGQGLEWIGYINPNSGYTKYNQKFKDKATLTAGQSSSTAYMQLSSLTSEDSAVYYCTRGGGRGFAYWGQGTLVTVSA VL: DILMTQSPSSMSVSLGDTVTITCHASQDINSNIGWLQQKPGKSFKALIYHGTNLEDGVPSRFSGSGSGADYSLTISSLESEDFADYYCVQYAQFPFTFGSGTKLEIK
EC50: 3.1 nM

Which EC50 reading was recorded for the binder Murine anti-7E5 (antibody, V domains shown, Mouse hybridoma antibody; also called 7E5-2A9; murine anti-7E5-2) VH: EIQLQQSGPELVKPGASVKVSCKASGYSFTDYNMYWVKQSHGKSLEWIGYVDPSNGGTNYNQKFKGKATLTVDKSSSTAFMHLNSLTSEDSAVYYCARGFFDYWGQGTTLTVSS VL: DIVMTQSPSSLTVTAGEKVTMSCKSSQSLLNSGNQKNYLTWYQQKPGQPPKLLIYWASNRESGVPDRFTGSGSGKDFTLTISSVQAEDLAVYYCQNDYRYPVTFGAGTKLELK ?
2.9 nM

Which EC50 reading was recorded for the binder Murine anti-64F1 (antibody, V domains shown, Mouse hybridoma antibody; also called 64F1F8) VH: QVQLQQSGAELARPGASVKMSCKASGYTFSSYTMHWAKQRPGQGLEWIGYINPSSGYTKYNQKFKDKATLTADKSSSTAYMQLSSLTSEDSIVYYCARGGGRGFAYWGQGTLVTVSA VL: QIVLTQSPAIMSASPGERVTMTCSASSSVSYMYWYQQKPGSSPRLLIYDTSNLASGVPVRFSGSGSGTSYSLTISRVEAEDAATYYCQQWSSYSLTFGAGTKLELK ?
2 nM
